Catalogue of melting point values

Example molecules with recorded melting point:
- Molecule: "CN(Cc1cc2ccccc2n1C)C(=O)/C=C/c1ccc(NC(=O)CCC(N)=O)nc1 [Example 214]"
  melting point: "225 to 227 °C"
- Molecule: "CN(Cc1cc2ccccc2n1C)C(=O)/C=C/c1ccc(NC(=O)CCC(=O)N2CCOCC2)nc1 [Example 216]"
  melting point: "206 to 209 °C (dec.)"
- Molecule: "CN(Cc1cc2ccccc2n1C)C(=O)/C=C/c1ccc(N2C(=O)CCC2=O)nc1 [Example 213]"
  melting point: "185 to 187 °C"

Here's the next entry for you.
Name the reported melting point value associated with the molecule CN1CCN(C(=O)CCC(=O)Nc2ccc(/C=C/C(=O)N(C)Cc3cc4ccccc4n3C)cn2)CC1 [Example 215]
145 to 147 °C (dec.)
